Values from ChEMBL document CHEMBL1132441

Target: 5-hydroxytryptamine receptor 2A (Rattus norvegicus) (UniProt P14842)
Sequence (P14842 whole entry): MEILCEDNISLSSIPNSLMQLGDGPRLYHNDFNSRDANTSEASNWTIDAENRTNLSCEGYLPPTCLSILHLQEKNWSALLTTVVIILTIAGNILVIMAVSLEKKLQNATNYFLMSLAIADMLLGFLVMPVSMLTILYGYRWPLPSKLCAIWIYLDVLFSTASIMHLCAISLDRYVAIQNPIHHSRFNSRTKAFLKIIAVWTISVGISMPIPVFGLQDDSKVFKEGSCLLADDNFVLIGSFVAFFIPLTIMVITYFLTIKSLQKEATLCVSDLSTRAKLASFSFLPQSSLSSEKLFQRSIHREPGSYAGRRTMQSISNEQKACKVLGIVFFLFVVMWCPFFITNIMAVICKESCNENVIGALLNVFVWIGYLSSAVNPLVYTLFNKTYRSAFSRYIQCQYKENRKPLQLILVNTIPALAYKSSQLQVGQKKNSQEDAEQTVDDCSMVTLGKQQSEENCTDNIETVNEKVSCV
Test: Compound was tested for binding affinity at 5-hydroxytryptamine 2A receptor sites in rat cortical homogenate using [125I]-2,5-Dimethoxy -4-iodoamphetamine (DOI).
metric: K0.5 (nM)
Could you give me the number in nM? Just the number is fine.

-- ask Would you kindly share the measured K0.5 for `CN1CCC[C@H]1Cc1c[nH]c2cc(O)ccc12` ?
-- reply 290

-- ask Repeat with COc1ccc2[nH]cc(C3CCN(C)C3)c2c1 (stereo not drawn)
-- reply 150

-- ask Repeat with `COc1ccc2[nH]cc(C[C@H]3CCCN3C)c2c1`
-- reply 9.5

-- ask Repeat with COc1ccc2[nH]cc(CCN(C)C)c2c1 [MEBUFOTENIN]
-- reply 21

-- ask Repeat with `COc1ccc2[nH]cc(C[C@@H]3CCCN3C)c2c1`
-- reply 64

-- ask Repeat with CN1CCC(c2c[nH]c3cccc(O)c23)C1 (stereo not drawn)
-- reply 82

-- ask Repeat with `CN1CCC[C@@H]1Cc1c[nH]c2cc(O)ccc12`
-- reply 13

-- ask Repeat with CN(C)CCc1c[nH]c2cccc(O)c12 [PSILOCIN]
-- reply 6
